assay: growth of efflux-deficient E. coli DRC39 – strain DRC39, OD650, 48 h, E. coli filamentation inducers, primary screen (AID 1179);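 further: screen aims at cell division blockers that make cells filament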; settings: E. coli DRC39 delta-acrAB growth, higher = more signal, called active from +8 up or from −8 down
Activity calls are given as the source filed them.
measure: z-score

>>> observed_value("CC1=C2[C@@H](CCc3ccccc3)OB(O)C[C@@H]2[C@@H]2C(=O)N(Cc3ccccc3)C(=O)[C@@H]2C1")
"-0.225 (inactive)"
>>> observed_value("C=CCNC(=O)[C@@H]1[C@H]2C(=O)O[C@H](c3ccccc3)[C@H](c3ccccc3)N2[C@H](c2ccccc2OCCO)[C@@]12C(=O)Nc1ccc(C#CCC(C(=O)OC)C(=O)OC)cc12")
"-0.263 (inactive)"
>>> observed_value("CC(=O)NCCCC[C@@H]1NC(=O)[C@@H]2C[C@H](C(=O)NCCCCCN)[C@H](c3cccc(OCCO)c3)N2C1=O")
"1.9 (inactive)"

Attention now shifts to the item below.
**Query** Recorded z-score of COC(=O)[C@@]1(Cc2ccc(OC)cc2)[C@H]2c3cc(C(=O)N(C)C)n(Cc4ccc(C)o4)c3C[C@H]2CN1C(=O)c1ccccc1 , please.
**Result** -0.0131 (inactive)

====

assay: probe aWnt5a binding to arrayed compounds – biochemical, biotinylated probe, 635/667 nm fluorescence, primary screen (AID 1113); conditions: small-molecule microarray, higher = more signal;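 further: score merges 667 nm fluorescence intensity with signal-to-noise per printed feature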
measure: composite z-score

>>> observed_value("C=C(COC)/C(=C/C[C@H](OC(=O)c1ccncc1)c1ccc(CO)o1)c1cnc2ccccc2c1")
-0.0758
>>> observed_value("CC(C)(C)OC(=O)COc1cccc(C(=O)CCN2CCOCC2)c1")
-0.192
>>> observed_value("CCCCCCCCCC(O)C1C=CC2C(=O)N(c3ccccc3)C(=O)C2N1Nc1cc(OC)c(OC)c(OC)c1 (configuration not stated)")
-0.0685
>>> observed_value("CCCC=C(CCC)[C@@H](NC(=O)c1cccs1)c1ccc(C(=O)OC)cc1")
1.34
>>> observed_value("CCCCC(CC)C(O)C1C=CC2C(=O)N(C)C(=O)C2N1Nc1ccccc1 (configuration not stated)")
-0.0721

**Query** Recorded composite z-score of O=C(C1N=C(c2ccc(OCCCO)cc2)N(c2ccccc2)O1)N1CCCCC1 (configuration not stated) , please.
**Result** 0.0454

**Query** Recorded composite z-score of COC(=O)C(CC#Cc1ccc2c(c1)[C@]1(C(=O)N2)[C@H](c2ccc(O)cc2)N2[C@H](c3ccccc3)[C@H](c3ccccc3)OC(=O)[C@H]2[C@@H]1C(=O)NC[C@H](O)c1ccccc1)C(=O)OC , please.
**Result** -0.0606

**Query** Recorded composite z-score of COC(=O)[C@@H]1N=C(c2ccc(OCCCO)cc2)O[C@@H]1c1ccccc1 , please.
**Result** -0.152

**Query** Recorded composite z-score of COc1ccc([Si](C)(C)[C@@H]2[C@@H](CC(=O)N3CCC[C@H]3CO)O[C@]3(C(=O)N(Cc4cccc(N5C(=O)COc6ccccc65)c4)c4ccccc43)[C@H]2C)cc1 , please.
**Result** 0.0215

**Query** Recorded composite z-score of COC(=O)[C@@]1(Cc2ccc(F)cc2)[C@H]2c3cc(C(=O)N(C)C)n(Cc4ccc(OC(F)(F)F)cc4)c3C[C@H]2CN1C(=O)c1ccccc1 , please.
**Result** -0.0758
